Reference for the values: the RNAGym collection of RNA variant scans (doi:10.7554/elife.80360)

B1: CPEB3 Ribozyme (parent)
chain: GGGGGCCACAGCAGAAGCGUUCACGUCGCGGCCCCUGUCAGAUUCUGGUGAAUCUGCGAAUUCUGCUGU

- Variants of: B1
- test method notes: self-cleavage, relative activity (ratio to wild type); higher = more cleavage; co-transcriptional
property label: self-cleavage

For orientation, consider the following solved cases.
   mutation_notation    val
0          A16G C66G  0.646
1           G5U A10C  0.604
2           G1U A59U  0.114
3          A16U G19A   0.13
4           G4U C39A  0.322

Lab note: measured self-cleavage of G3C C57A was 0.0768

Lab note: measured self-cleavage of G31A C32A was 0.637

Lab note: measured self-cleavage of G11A C24U was 0.259
